assay: Plasma protein binding (Rapid Equilibrium Dialysis); format: in vitro ADME, human; conditions: human, plasma, human plasma; 5 µM; dialysed against PBS 4 h at 37C; read-out: Mean plasma fraction Bound (converted)

| compound | fraction unbound |
| --- | --- |
| CC(=O)CC(c1ccccc1)c1c(O)c2ccccc2oc1=O (stereo not shown) [Warfarin, reference compound] | 0.007 |

====

assay: in vitro; settings: human, Caco-2, recovery
Each entry below lists one item and its recorded recovery at 2 h, 10 μM value.

| compound | resultUnit | recovery at 2 h, 10 μM |
| --- | --- | --- |
| COCCCNC(=S)Nc1nc2ccccc2s1 [Molecule 24] | % | 54 |
| CCCCNC(=S)Nc1nc(C)co1 [Molecule 21, 1-butyl-3-(4-methyloxazol-2-yl)thiourea] | % | 56 |
| CCCCNC(=S)Nc1nccs1 [Molecule 14, 1-butyl-3-(thiazol-2-yl)thiourea] | % | 59 |
